The values you see were collected from patent US20130273029A1.

Biological target: T1, Hu HER3: CD33-[Human HER3, residues 20-640]-TAG (human, UniProt P21860 20-640)
T1 construct: also called hu HER3-Tag; HER3-Tag; not shown: C-terminal TAG (e.g., FLAG TAG)
T1 sequence (P21860 20-640): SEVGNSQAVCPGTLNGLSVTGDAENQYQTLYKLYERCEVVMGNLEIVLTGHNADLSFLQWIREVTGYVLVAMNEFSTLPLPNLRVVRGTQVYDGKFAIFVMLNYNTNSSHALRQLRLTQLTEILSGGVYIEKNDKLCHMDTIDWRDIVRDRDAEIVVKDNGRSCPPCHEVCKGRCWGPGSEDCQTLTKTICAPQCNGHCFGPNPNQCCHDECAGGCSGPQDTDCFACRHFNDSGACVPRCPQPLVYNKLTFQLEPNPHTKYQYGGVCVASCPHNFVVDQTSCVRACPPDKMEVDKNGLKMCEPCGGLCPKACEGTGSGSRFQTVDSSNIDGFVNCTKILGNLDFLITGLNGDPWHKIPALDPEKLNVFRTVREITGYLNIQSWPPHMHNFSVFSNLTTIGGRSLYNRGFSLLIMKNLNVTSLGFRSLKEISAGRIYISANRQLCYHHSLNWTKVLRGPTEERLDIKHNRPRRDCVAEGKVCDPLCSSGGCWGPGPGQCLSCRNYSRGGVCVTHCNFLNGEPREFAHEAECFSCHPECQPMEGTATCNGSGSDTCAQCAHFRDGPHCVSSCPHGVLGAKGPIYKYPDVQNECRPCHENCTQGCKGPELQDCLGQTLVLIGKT
Assay: SET, IgG vs soluble HER3-Tag
Method: Affinity determination in solution was essentially performed as previously described (Friguet et al., (1985) J Immunol Methods 77:305-19). […] The data was evaluated with XLfit software (ID Business Solutions) applying customized fitting models. Antibody affinity was determined by solution equilibrium titration (SET) as described above. […]
Form field: Kd (one value per entry).
Express it in nM; write the number only.

- Binder: "MOR14536 (antibody, human IgG1, kappa, V domains shown, tested as IgG) VH: EVQLVQSGAEVKKPGESLKISCKGSGYSFSNYWIAWVRQMPGKGLEWMGIIYPGQSDTIYSPSFQGQVTISADKSISTAYLQWSSLKASDTAMYYCARVHIIQPPSAWSYNAMDVWGQGTLVTVSS VL: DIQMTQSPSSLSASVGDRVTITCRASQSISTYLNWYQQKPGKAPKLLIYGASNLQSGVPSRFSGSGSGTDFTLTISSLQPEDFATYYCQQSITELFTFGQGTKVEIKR"
  Value units: "nM"
  Kd: 0.072

// below: Kd requested for another binder
Input: Which Kd value belongs to MOR13869 (antibody, human IgG1, kappa, V domains shown, tested as IgG) VH: QVQLVQSGAEVKKPGESLKISCKGSGYSFSNYWIAWVRQMPGKGLEWMGIIYPGGSDTIYSPSFQGQVTISADKSISTAYLQWSSLKASDTAMYYCARVHIIQPPSAWSYNAMDVWGQGTLVTVSS VL: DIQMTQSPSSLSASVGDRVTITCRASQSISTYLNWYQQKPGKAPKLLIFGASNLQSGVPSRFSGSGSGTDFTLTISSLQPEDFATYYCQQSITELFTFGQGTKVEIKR ?
Output: 0.23
